Data origin: PubChem BioAssay AID2060344

test system: SK-MEL-2 multi-cell spheroids, viability; experiment: Anticancer human tumor SK-MEL-2 cell line growth inhibition [TAK]; settings: second compound 30 µM; first compound 0.00316 µM; stronger effect = lower value;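 further: spheroids exposed to drugs for seven days before readout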;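 on viability, T/C: percent of DMSO vehicle control luminescence so 100% = untreated viability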
value-kind: viability, T/C (%)

# compound, value-kind, numeric-value
data = [
    ("CC(C)CC(NC(=O)C(Cc1ccccc1)NC(=O)c1cnccn1)B(O)O (stereo not given) + CC(C)NCC(C(=O)N1CCN(c2ncnc3c2C(C)CC3O)CC1)c1ccc(Cl)cc1", "viability, T/C", 119),
    ("CC(C)n1nc(-c2ccc3oc(N)nc3c2)c2c(N)ncnc21 + CC(C)NCC(C(=O)N1CCN(c2ncnc3c2C(C)CC3O)CC1)c1ccc(Cl)cc1", "viability, T/C", 41.2),
    ("CC(C)CC(NC(=O)CNC(=O)c1cc(Cl)ccc1Cl)B1OC(=O)CC(CC(=O)O)(C(=O)O)O1 (stereo not given) + CC(C)NCC(C(=O)N1CCN(c2ncnc3c2C(C)CC3O)CC1)c1ccc(Cl)cc1", "viability, T/C", 41.7),
    ("COc1c(OCCCN2CCOCC2)ccc2c3n(c(=NC(=O)c4cnc(N)nc4)nc12)CCN3 + CC(C)NCC(C(=O)N1CCN(c2ncnc3c2C(C)CC3O)CC1)c1ccc(Cl)cc1", "viability, T/C", 52.5),
    ("COC1CC2CCC(C)C(O)(O2)C(=O)C(=O)N2CCCCC2C(=O)OC(C(C)CC2CCC(OCCO)C(OC)C2)CC(=O)C(C)C=C(C)C(O)C(OC)C(=O)C(C)CC(C)C=CC=CC=C1C (stereo not given) + CC(C)NCC(C(=O)N1CCN(c2ncnc3c2C(C)CC3O)CC1)c1ccc(Cl)cc1", "viability, T/C", 20.4),
]

---

system: SK-MEL-2 multi-cell spheroids, viability; experiment: Anticancer human tumor SK-MEL-2 cell line growth inhibition [TAK]; conditions: second compound 9.49 µM; first compound 0.00316 µM; stronger effect = lower value;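 further: spheroids exposed to drugs for seven days before readout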;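 on viability, T/C: percent of DMSO vehicle control luminescence so 100% = untreated viability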
# viability, T/C values compiled below
value-kind: viability, T/C (%)

# compound, value-kind, unit-string, numeric-value
measured = [
    ("CC(C)CC(NC(=O)C(Cc1ccccc1)NC(=O)c1cnccn1)B(O)O (stereo not given) + CC(C)NCC(C(=O)N1CCN(c2ncnc3c2C(C)CC3O)CC1)c1ccc(Cl)cc1", "viability, T/C", "%", 62.5),
    ("COc1c(OCCCN2CCOCC2)ccc2c3n(c(=NC(=O)c4cnc(N)nc4)nc12)CCN3 + CC(C)NCC(C(=O)N1CCN(c2ncnc3c2C(C)CC3O)CC1)c1ccc(Cl)cc1", "viability, T/C", "%", 59.8),
    ("COC1CC2CCC(C)C(O)(O2)C(=O)C(=O)N2CCCCC2C(=O)OC(C(C)CC2CCC(OCCO)C(OC)C2)CC(=O)C(C)C=C(C)C(O)C(OC)C(=O)C(C)CC(C)C=CC=CC=C1C (stereo not given) + CC(C)NCC(C(=O)N1CCN(c2ncnc3c2C(C)CC3O)CC1)c1ccc(Cl)cc1", "viability, T/C", "%", 23.2),
    ("CC(C)n1nc(-c2ccc3oc(N)nc3c2)c2c(N)ncnc21 + CC(C)NCC(C(=O)N1CCN(c2ncnc3c2C(C)CC3O)CC1)c1ccc(Cl)cc1", "viability, T/C", "%", 42.2),
    ("CC(C)CC(NC(=O)CNC(=O)c1cc(Cl)ccc1Cl)B1OC(=O)CC(CC(=O)O)(C(=O)O)O1 (stereo not given) + CC(C)NCC(C(=O)N1CCN(c2ncnc3c2C(C)CC3O)CC1)c1ccc(Cl)cc1", "viability, T/C", "%", 44.2),
]

---

test system: SK-MEL-2 multi-cell spheroids, viability; assay: Anticancer human tumor SK-MEL-2 cell line growth inhibition [TAK]; settings: curve of first compound; second compound 30 µM;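 further: spheroids exposed to drugs for seven days before readout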
pIC50: −log10 of the molar value.
value-kind: pIC50

# compound, value-kind, result
data = [
    ("COC1CC2CCC(C)C(O)(O2)C(=O)C(=O)N2CCCCC2C(=O)OC(C(C)CC2CCC(OCCO)C(OC)C2)CC(=O)C(C)C=C(C)C(O)C(OC)C(=O)C(C)CC(C)C=CC=CC=C1C (configuration not stated) + CC(C)NCC(C(=O)N1CCN(c2ncnc3c2C(C)CC3O)CC1)c1ccc(Cl)cc1", "pIC50", "> 9.50"),
    ("CC(C)CC(NC(=O)CNC(=O)c1cc(Cl)ccc1Cl)B1OC(=O)CC(CC(=O)O)(C(=O)O)O1 (configuration not stated) + CC(C)NCC(C(=O)N1CCN(c2ncnc3c2C(C)CC3O)CC1)c1ccc(Cl)cc1", "pIC50", "> 9.50"),
]

---

system: SK-MEL-2 multi-cell spheroids, viability; experiment: Anticancer human tumor SK-MEL-2 cell line growth inhibition [TAK]; conditions: curve of first compound; second compound 0.949 µM;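 further: spheroids exposed to drugs for seven days before readout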
pIC50: −log10 of the molar value.
Outcome: YES for pIC50 of at least 8; NO for anything lower.

# molecule, category-label
rows = [
    ("CCCS(=O)(=O)Nc1ccc(F)c(C(=O)c2c[nH]c3ncc(-c4ccc(Cl)cc4)cc23)c1F + CC(C)NCC(C(=O)N1CCN(c2ncnc3c2C(C)CC3O)CC1)c1ccc(Cl)cc1", "NO"),
    ("Cn1cnc2c(F)c(Nc3ccc(Br)cc3Cl)c(C(=O)NOCCO)cc21 + CC(C)NCC(C(=O)N1CCN(c2ncnc3c2C(C)CC3O)CC1)c1ccc(Cl)cc1", "YES"),
    ("CC(C)CC(NC(=O)C(Cc1ccccc1)NC(=O)c1cnccn1)B(O)O (stereo not given) + CC(C)NCC(C(=O)N1CCN(c2ncnc3c2C(C)CC3O)CC1)c1ccc(Cl)cc1", "NO"),
    ("CC(=O)Nc1cccc(-n2c(=O)n(C3CC3)c(=O)c3c(Nc4ccc(I)cc4F)n(C)c(=O)c(C)c32)c1 + CC(C)NCC(C(=O)N1CCN(c2ncnc3c2C(C)CC3O)CC1)c1ccc(Cl)cc1", "YES"),
    ("COC1CC2CCC(C)C(O)(O2)C(=O)C(=O)N2CCCCC2C(=O)OC(C(C)CC2CCC(OCCO)C(OC)C2)CC(=O)C(C)C=C(C)C(O)C(OC)C(=O)C(C)CC(C)C=CC=CC=C1C (stereo not given) + CC(C)NCC(C(=O)N1CCN(c2ncnc3c2C(C)CC3O)CC1)c1ccc(Cl)cc1", "YES"),
    ("COc1c(OCCCN2CCOCC2)ccc2c3n(c(=NC(=O)c4cnc(N)nc4)nc12)CCN3 + CC(C)NCC(C(=O)N1CCN(c2ncnc3c2C(C)CC3O)CC1)c1ccc(Cl)cc1", "NO"),
    ("Cc1nc(NC(=O)N2CCCC2C(N)=O)sc1-c1ccnc(C(C)(C)C(F)(F)F)c1 (stereo not given) + CC(C)NCC(C(=O)N1CCN(c2ncnc3c2C(C)CC3O)CC1)c1ccc(Cl)cc1", "NO"),
    ("CC(C)(C)c1nc(-c2cccc(NS(=O)(=O)c3c(F)cccc3F)c2F)c(-c2ccnc(N)n2)s1 + CC(C)NCC(C(=O)N1CCN(c2ncnc3c2C(C)CC3O)CC1)c1ccc(Cl)cc1", "NO"),
]

---

# viability, T/C values compiled below
System: SK-MEL-2 multi-cell spheroids, viability
Test: Anticancer human tumor SK-MEL-2 cell line growth inhibition [TAK];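 further: spheroids exposed to drugs for seven days before readout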;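 on viability, T/C: percent of DMSO vehicle control luminescence so 100% = untreated viability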
Conditions: second compound 0.3 µM; first compound 1 µM; stronger effect = lower value
Procedure: Combinatorial screen of targeted agents with TAK-243 and ipatasertib in multi-cell type tumor spheroids […] Compounds. […] If the clinical Cmax for an agent had not been determined, the highest concentration tested was 10 microM. NCI60 Cell Culture. […] The optimal seeding densities for each of the cell lines at each time point assessed were determined prior to performing the concentration response studies. […]

# compound, subject-of-test, unit-string, viability, T/C
rows = [
    ("CCCS(=O)(=O)Nc1ccc(F)c(C(=O)c2c[nH]c3ncc(-c4ccc(Cl)cc4)cc23)c1F + CC(C)NCC(C(=O)N1CCN(c2ncnc3c2C(C)CC3O)CC1)c1ccc(Cl)cc1", "SK-MEL-2 multi-cell spheroids, viability", "%", 108),
    ("Cc1nc(NC(=O)N2CCCC2C(N)=O)sc1-c1ccnc(C(C)(C)C(F)(F)F)c1 (centres undefined) + CC(C)NCC(C(=O)N1CCN(c2ncnc3c2C(C)CC3O)CC1)c1ccc(Cl)cc1", "SK-MEL-2 multi-cell spheroids, viability", "%", 79.8),
    ("COc1c(OCCCN2CCOCC2)ccc2c3n(c(=NC(=O)c4cnc(N)nc4)nc12)CCN3 + CC(C)NCC(C(=O)N1CCN(c2ncnc3c2C(C)CC3O)CC1)c1ccc(Cl)cc1", "SK-MEL-2 multi-cell spheroids, viability", "%", 19.5),
    ("CC(C)(C)c1nc(-c2cccc(NS(=O)(=O)c3c(F)cccc3F)c2F)c(-c2ccnc(N)n2)s1 + CC(C)NCC(C(=O)N1CCN(c2ncnc3c2C(C)CC3O)CC1)c1ccc(Cl)cc1", "SK-MEL-2 multi-cell spheroids, viability", "%", 28.6),
]
